test.summary: Diflunisal protein binding by rapid equilibrium dialysis
Type: in vitro ADME, mouse
conditions: diluted 1:20 (final) with PBS, pH 7.4, mouse brain homogenate, 37° C., read-out: fraction unbound in brain tissue (fubrain)
observable: fraction unbound at 6 h, 5 μM

Enquiry: Requested field: fraction unbound at 6 h, 5 μM. Item: "O=C(O)c1cc(-c2ccc(F)cc2F)ccc1O"
Return: 0.05
